Reference for the values: the supplement of paper PMC10567573

B1: POMT2 (parent)
chain: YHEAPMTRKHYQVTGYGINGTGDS

# Variants of: B1
# test: protein stability index of a GFP-peptide fusion (GPS, HEK-293T) (PSI 1-6); higher = more stable;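 further: lentivirally expressed fusions sorted by FACS into six bins by GFP to DsRed ratio, PSI derived from sequencing read proportions per bin multiplied by bin number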
# conditions: c terminus: a fixed tail appended
property measured: protein stability index
Respond with the number and no other words.

Solved entries (count: 6):
# sequence data, protein stability index
data = [
    ("YHEHPMTRKHYQVTGYGINGTGDS [A4H]", 2.04),
    ("YHEAPMTRKHLQVTGYGINGTGDS [Y11L]", 2.75),
    ("YHEAPMTRKHYFVTGYGINGTGDS [Q12F]", 2.28),
    ("YHEAPMTRKHYQVTGYGINGYGDS [T21Y]", 1.76),
    ("YHEAPMDRKHYQVTGYGINGTGDS [T7D]", 2.66),
    ("YHEAPMTRKHYQVTKYGINGTGDS [G15K]", 2.71),
]

May I ask what protein stability index has been recorded for YHEAPMTRKWYQVTGYGINGTGDS [H10W] ?
2.49

And for YHEAPMTRKHCQVTGYGINGTGDS [Y11C] ?
3.06
